// provenance: patent US20150239831A1

# measurement target: VIPR2 (Homo sapiens, UniProt P41587)
# Sequence (P41587 24-438): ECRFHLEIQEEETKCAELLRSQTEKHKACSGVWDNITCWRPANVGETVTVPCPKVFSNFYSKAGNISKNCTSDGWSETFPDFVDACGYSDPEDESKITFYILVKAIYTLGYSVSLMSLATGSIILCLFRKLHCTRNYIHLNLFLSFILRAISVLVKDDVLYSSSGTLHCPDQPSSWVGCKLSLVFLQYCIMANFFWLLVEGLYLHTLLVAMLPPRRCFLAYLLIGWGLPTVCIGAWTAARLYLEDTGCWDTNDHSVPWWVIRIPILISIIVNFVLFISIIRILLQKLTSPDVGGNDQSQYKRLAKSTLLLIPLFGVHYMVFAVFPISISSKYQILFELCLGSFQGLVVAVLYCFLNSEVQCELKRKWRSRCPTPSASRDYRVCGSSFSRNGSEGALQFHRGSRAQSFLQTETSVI
# assay details: % Activity: inhibition of VIP-induced cAMP elevation and β-arrestin recruitment (Table 2)
# Format: cell-based
# Set-up: expressed in transfected cells; host or cells: HEK293 cells transfected with VIPR2 in pCDNA3.1 (as described)
readout label: % Activity (%)
Give your result in % as a bare value.

// below: answered molecules
1) CC(C)C(=O)NC[C@@H](O)C[C@@H](Cc1ccccc1)C(=O)N[C@H]1c2ccccc2C[C@H]1O [Compound A13]	−8.6
2) CN(C)c1ccc(S(=O)(=O)NC[C@@H](O)C[C@@H](Cc2ccccc2)C(=O)N[C@H]2c3ccccc3C[C@H]2O)cc1 [Compound X083]	2.65
3) O=C(NC[C@@H](O)C[C@@H](Cc1ccccc1)C(=O)N[C@H]1c2ccccc2C[C@H]1O)C1CC1 [Compound A1]	26.55
4) NC(=O)[C@H](Cc1ccccc1)C[C@H](O)CNS(=O)(=O)c1ccc([N+](=O)[O-])cc1 [Compound B12A]	−10.45
5) O=C(NCc1ccc(F)cc1F)[C@@H](Cc1ccccc1)C[C@H](O)CNS(=O)(=O)c1ccc([N+](=O)[O-])cc1 [Compound B14B]	21.1000

What the record says about O=C(NC[C@@H](O)C[C@@H](Cc1ccccc1)C(=O)N[C@H]1c2ccccc2C[C@H]1O)c1ccncc1 [Compound A18] : % Activity is 6.1

What the record says about O=C(N[C@H]1c2ccccc2C[C@H]1O)[C@H](Cc1ccccc1)C[C@H](O)CNS(=O)(=O)c1ccc(C(=O)N2CCCCC2)cc1 [Compound X101] : % Activity is −6.85
